tested on: RXF 393 renal; assay: NCI-60 one-dose screen, 48 h; conditions: 10 µM unless noted
Compounds without any hit were thinned out: in the full panel of roughly 83,000, 20% have a hit. Activity calls are given as the source filed them. Rule for the calls: active = growth percent below 10; inactive = the rest.
Labels: active, inactive

[
  {
    "molecule": "CCC(=O)Oc1ccc(/C(=C(\\C)c2ccccc2)c2ccc(OCCN(CC)CC)cc2)cc1",
    "class": "inactive"
  },
  {
    "molecule": "COc1ccc(/C=C2\\N=C3SC=C(N)N3C2=O)cc1",
    "class": "active"
  },
  {
    "molecule": "CCN(CC)CC(O)c1cc(-c2ccc(Cl)cc2)nc2c(C)c(Cl)ccc12 (stereo not given)",
    "class": "active"
  },
  {
    "molecule": "Cc1nc2nc(N)nc(N)c2nc1C",
    "class": "inactive"
  },
  {
    "molecule": "Clc1nc(Cl)c2c3c(sc2n1)CCCC3",
    "class": "active"
  },
  {
    "molecule": "CCOC(=O)C(=Cc1ccccc1F)C(=O)OCC",
    "class": "inactive"
  },
  {
    "molecule": "Brc1cccc(-c2cc(-c3ccc4c(c3)OCCO4)[nH]n2)c1",
    "class": "active"
  },
  {
    "molecule": "Oc1cccc(Nc2nccc(-c3ccc4ccccc4c3)n2)c1",
    "class": "inactive"
  },
  {
    "molecule": "COc1ccc2nc3cc(Cl)ccc3c(N3CCN(c4nccc(Nc5ccccc5)n4)CC3)c2c1",
    "class": "inactive"
  },
  {
    "molecule": "CCOC(=O)/C=C/C(=O)[C@H](CC(C)C)NC(=O)[C@H](Cc1ccccc1)NC(=O)OCc1ccccc1",
    "class": "inactive"
  },
  {
    "molecule": "C/C(=C(/c1ccc(O)cc1)c1ccc(OCCN2CCCC2)cc1)c1ccccc1",
    "class": "inactive"
  },
  {
    "molecule": "CCN(CC)c1ccc(CNc2cc(C)nc3ccc(OC)cc23)cc1",
    "class": "inactive"
  },
  {
    "molecule": "C=C1CC[C@@H]2[C@](C)(COC(C)=O)[C@H](OC(C)=O)CC[C@@]2(C)[C@@H]1CC(Nc1ccc(S(=O)(=O)Nc2nc(C)cc(C)n2)cc1)C1=CCOC1=O (stereo not given in full)",
    "class": "inactive"
  },
  {
    "molecule": "CC(=O)C1=C(O)C=C2Oc3c(C(=O)/C=C/c4cc(C(F)(F)F)cc(C(F)(F)F)c4)c(O)c(C)c(O)c3[C@]2(C)C1=O",
    "class": "active"
  },
  {
    "molecule": "O=C(/C=C/c1cc2ccccc2[nH]c1=O)/C=C/c1cc2ccccc2[nH]c1=O",
    "class": "active"
  },
  {
    "molecule": "Nc1c(C(=O)Nc2ccccc2Cl)sc2nc3c(cc12)CCCCCC3",
    "class": "active"
  },
  {
    "molecule": "Cc1cc(OCc2ccc(C(F)(F)F)cc2)c2c(c1)C(=O)C=C(NCCN1CCCC1)C2=O",
    "class": "inactive"
  },
  {
    "molecule": "C[C@]12C[C@@H](c3ccoc3)OC(=O)[C@@H]1CC[C@]1(C)[C@@H]2CC[C@@H](O)[C@]1(C)O",
    "class": "inactive"
  },
  {
    "molecule": "O=C1c2cccnc2C(=O)c2c1c(C(=O)OCCN1CCOCC1)c1ccccn21",
    "class": "inactive"
  },
  {
    "molecule": "N#Cc1c(N)nc(N)nc1Nc1ccc(Br)cc1",
    "class": "inactive"
  }
]
